Hey, just so you know, these numbers are from patent US20050239873A1.

Test: Binding to plasma proteins (ultrafiltration)
Type: in vitro ADME, mouse
Details: mouse, plasma, presence of NaF+EDTA, read-out: Protein binding, Mouse
Experimental readout: fraction unbound at 20 min, 1000 ng/ml

Check the records and state fraction unbound at 20 min, 1000 ng/ml for CCCC[C@H]1C(=O)OC(C)[C@H](NC(=O)c2cccc(NC=O)c2OC)C(=O)O[C@@H](C)C1OC(=O)CC(C)C (stereo partly shown) [2-OMeA3, Antimycin A3 methyl ether]
< 0.01

###

Biological target: Bcl-xL(ΔC) WT (Homo sapiens, UniProt Q07817)
Construct: inferred from Ni-NTA purification and the pET22b(+) NdeI/XhoI cloning); made in house; host or cells: Escherichia coli BL21(DE3) carrying pUB520
Sequence (Q07817 1-211 limits assumed, stated change not applied): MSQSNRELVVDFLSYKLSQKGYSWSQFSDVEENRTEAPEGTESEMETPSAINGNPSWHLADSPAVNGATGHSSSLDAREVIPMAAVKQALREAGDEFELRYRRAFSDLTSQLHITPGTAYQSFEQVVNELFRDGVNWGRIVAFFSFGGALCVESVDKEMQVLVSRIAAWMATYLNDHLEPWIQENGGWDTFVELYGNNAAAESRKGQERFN
Test: Pore-forming activity, calcein release from liposomes
Format: biochemical
Experimental readout: effect on Bcl-xL pore-forming activity

CC(C)C(C(=O)O)N1C(=O)/C(=C\c2ccc(Br)cc2)SC1=S (stereo not shown) : no effect
CCCCCC[C@H]1C(=O)O[C@H](C)[C@H](NC(=O)c2cccc(NC=O)c2OC)C(=O)O[C@@H](C)[C@@H]1OC(=O)CC(C)C [2-OMeA1, 2-methoxy antimycin A1] : inhibited
CCCCCC[C@H]1C(=O)O[C@H](C)[C@H](NC(=O)c2cccc(NC=O)c2O)C(=O)O[C@@H](C)[C@@H]1OC(=O)CC(C)C [antimycin A1] : inhibited
CCCC[C@H]1C(=O)O[C@H](C)[C@H](NC(=O)c2cccc(NC=O)c2OCC(=O)c2ccccc2)C(=O)O[C@@H](C)[C@@H]1OC(=O)CC(C)C [phenacyl ether antimycin A3] : no effect
